Molecular target: CYP2C19 (Homo sapiens, UniProt P33261)
Sequence (P33261 whole entry): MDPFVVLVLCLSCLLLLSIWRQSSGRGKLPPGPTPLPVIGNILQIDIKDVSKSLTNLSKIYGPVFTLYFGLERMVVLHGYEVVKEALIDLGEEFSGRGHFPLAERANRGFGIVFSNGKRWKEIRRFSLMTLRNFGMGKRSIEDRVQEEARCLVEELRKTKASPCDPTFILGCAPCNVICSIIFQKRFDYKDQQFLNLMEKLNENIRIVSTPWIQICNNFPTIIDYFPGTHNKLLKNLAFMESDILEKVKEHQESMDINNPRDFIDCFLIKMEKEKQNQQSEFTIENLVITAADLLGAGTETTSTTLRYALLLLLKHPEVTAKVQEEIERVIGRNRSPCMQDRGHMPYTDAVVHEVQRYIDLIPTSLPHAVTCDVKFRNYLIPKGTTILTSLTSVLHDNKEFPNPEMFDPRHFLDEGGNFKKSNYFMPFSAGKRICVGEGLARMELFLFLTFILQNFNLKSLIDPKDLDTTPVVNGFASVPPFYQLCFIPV
Experiment: Inhibition of CYP2C19 (unknown origin) at 10 uM
Format: ADME
observed-property: inhibition at 10 µM

Give the value of inhibition at 10 µM reported for the following: Cn1ncnc1[C@H]1c2n[nH]c(=O)c3cc(F)cc(c23)N[C@@H]1c1ccc(F)cc1 [TALAZOPARIB] < 12%

---

Experiment: Apparent oral clearance in beagle dog at 0.1 mg/kg, po
Assay type: ADME, organism-based, Canis lupus familiaris
Conditions: in vivo
observed-property: CL/F (mL/min/kg)
Supply the numeric figure in mL/min/kg, leaving out any unit text.

Give the value of CL/F reported for the following: Cn1ncnc1[C@H]1c2n[nH]c(=O)c3cc(F)cc(c23)N[C@@H]1c1ccc(F)cc1 2.7

---

Experiment: AUC (0 to t) in beagle dog at 0.1 mg/kg, po
Type: ADME, organism-based, Canis lupus familiaris
Settings: in vivo
observed-property: AUC(0-t) (ng·h/mL)
Supply the numeric figure in ng·h/mL, leaving out any unit text.

Give the value of AUC(0-t) reported for the following: Cn1ncnc1[C@H]1c2n[nH]c(=O)c3cc(F)cc(c23)N[C@@H]1c1ccc(F)cc1 619

---

Experiment: AUC(0 to time) in beagle dog at 0.01 mg/kg, po
Format: ADME, organism-based, Canis lupus familiaris
Details: in vivo
observed-property: AUC (ng·h/mL)
Supply the numeric figure in ng·h/mL, leaving out any unit text.

Give the value of AUC reported for the following: Cc1ccc(S(=O)(=O)O)cc1.Cn1ncnc1[C@H]1c2n[nH]c(=O)c3cc(F)cc(c23)N[C@@H]1c1ccc(F)cc1 [TALAZOPARIB TOSYLATE] 600

---

Assay: AUC(0 to t) in beagle dog at 0.025 mg/kg, iv
Assay type: ADME, organism-based, Canis lupus familiaris
Details: in vivo
observed-property: AUC(0-t) (ng·h/mL)
Supply the numeric figure in ng·h/mL, leaving out any unit text.

Give the value of AUC(0-t) reported for the following: Cc1ccc(S(=O)(=O)O)cc1.Cn1ncnc1[C@H]1c2n[nH]c(=O)c3cc(F)cc(c23)N[C@@H]1c1ccc(F)cc1 [TALAZOPARIB TOSYLATE] 129

---

Biological target: PARP 1, 2 and 3 (Homo sapiens, UniProt P09874+Q9Y6F1+Q9UGN5)
Assay: Inhibition of PARP in human LoVo cells assessed as inhibition of poly(ADP)-ribose polymerization for 30 mins by fluorescence assay
Type: cell-based
observed-property: EC50 (nM)
Supply the numeric figure in nM, leaving out any unit text.

Give the value of EC50 reported for the following: Cn1ncnc1C1c2n[nH]c(=O)c3cccc(c23)NC1c1ccccc1 (stereo not drawn) 149

Give the value of EC50 reported for the following: Cn1ccnc1C1c2n[nH]c(=O)c3cc(F)cc(c23)NC1c1ccc(F)cc1 (stereo not drawn) 17

Give the value of EC50 reported for the following: Cn1ccnc1[C@H]1c2n[nH]c(=O)c3cc(F)cc(c23)N[C@@H]1c1ccc(F)cc1 17.9

---

Molecular target: PARP 1, 2 and 3 (Homo sapiens, UniProt P09874+Q9Y6F1+Q9UGN5)
Experiment: Inhibition of PARP in human LoVo cells assessed as inhibition of poly(ADP)-ribose polymerization for 30 mins by fluorescence assay
Assay type: cell-based
Answer each item with its documented EC50.

Give the value of EC50 reported for the following: Cn1ccnc1[C@@H]1c2n[nH]c(=O)c3cccc(c23)N[C@H]1c1ccc(F)cc1 285 nM

Give the value of EC50 reported for the following: Cn1ncnc1[C@@H]1c2n[nH]c(=O)c3cccc(c23)N[C@H]1c1ccc(F)cc1 250 nM

Give the value of EC50 reported for the following: Cn1ccnc1[C@@H]1c2n[nH]c(=O)c3cc(F)cc(c23)N[C@H]1c1ccc(F)cc1 164 nM

Give the value of EC50 reported for the following: CN(C)Cc1ccc(C2Nc3cccc4c(=O)[nH]nc(c34)C2c2ccc(F)cc2)cc1 (centres undefined) 18.5 nM

Give the value of EC50 reported for the following: O=c1[nH]nc2c3c(cccc13)N[C@@H](c1ccc(CN3CCC3)cc1)[C@@H]2c1ccc(F)cc1 11.8 nM

Give the value of EC50 reported for the following: Cn1ccnc1C1c2n[nH]c(=O)c3cccc(c23)NC1c1ccc(F)cc1 (centres undefined) 19.7 nM

Give the value of EC50 reported for the following: Cn1nccc1C1c2n[nH]c(=O)c3cc(F)cc(c23)NC1c1ccc(F)cc1 (centres undefined) 9.33 nM

Give the value of EC50 reported for the following: CN(C)Cc1ccc(C2Nc3cccc4c(=O)[nH]nc(c34)C2c2ccc(CN(C)C)cc2)cc1 (centres undefined) 18.6 nM

Give the value of EC50 reported for the following: O=c1[nH]nc2c3c(cccc13)NC(c1ccc(CN3CCC3)cc1)C2c1ccccc1 (centres undefined) 9.7 nM

---

Answer each item with its documented bioavailability.
Experiment: Oral bioavailability in Sprague-Dawley rat at 10 mg/kg by LC-MS/MS analysis
Type: ADME, organism-based
Settings: Sprague-Dawley, in vivo
Supply the numeric figure in %, leaving out any unit text.

Give the value of bioavailability reported for the following: O=c1[nH]nc2c3c(cccc13)N[C@H](c1ccc(CN3CCC3)cc1)[C@H]2c1ccc(F)cc1 14

Give the value of bioavailability reported for the following: Cn1ncnc1[C@H]1c2n[nH]c(=O)c3cccc(c23)N[C@@H]1c1ccc(F)cc1 47

Give the value of bioavailability reported for the following: O=C(c1cc(Cc2n[nH]c(=O)c3ccccc23)ccc1F)N1CCN(C(=O)C2CC2)CC1 11

Give the value of bioavailability reported for the following: Cn1ncnc1[C@H]1c2n[nH]c(=O)c3cc(F)cc(c23)N[C@@H]1c1ccc(F)cc1 56

Give the value of bioavailability reported for the following: Cn1ccnc1[C@H]1c2n[nH]c(=O)c3cccc(c23)N[C@@H]1c1ccc(F)cc1 91

---

Answer each item with its documented half-life.
Experiment: Terminal eliminational half life in Sprague-Dawley rat at 5 mg/kg, iv by LC-MS/MS analysis
Type: ADME, organism-based
Settings: Sprague-Dawley, in vivo, read-out: beta t1/2 (converted)
Supply the numeric figure in min, leaving out any unit text.

Give the value of half-life reported for the following: O=C(c1cc(Cc2n[nH]c(=O)c3ccccc23)ccc1F)N1CCN(C(=O)C2CC2)CC1 [OLAPARIB] 31.8

Give the value of half-life reported for the following: Cn1ccnc1[C@H]1c2n[nH]c(=O)c3cc(F)cc(c23)N[C@@H]1c1ccc(F)cc1 126

Give the value of half-life reported for the following: Cn1ccnc1[C@H]1c2n[nH]c(=O)c3cccc(c23)N[C@@H]1c1ccc(F)cc1 138

Give the value of half-life reported for the following: Cn1ncnc1[C@H]1c2n[nH]c(=O)c3cccc(c23)N[C@@H]1c1ccc(F)cc1 146

Give the value of half-life reported for the following: O=c1[nH]nc2c3c(cccc13)N[C@H](c1ccc(CN3CCC3)cc1)[C@H]2c1ccc(F)cc1 137

---

Target: Poly [ADP-ribose] polymerase 1 (Homo sapiens, UniProt P09874)
Sequence (P09874 whole entry): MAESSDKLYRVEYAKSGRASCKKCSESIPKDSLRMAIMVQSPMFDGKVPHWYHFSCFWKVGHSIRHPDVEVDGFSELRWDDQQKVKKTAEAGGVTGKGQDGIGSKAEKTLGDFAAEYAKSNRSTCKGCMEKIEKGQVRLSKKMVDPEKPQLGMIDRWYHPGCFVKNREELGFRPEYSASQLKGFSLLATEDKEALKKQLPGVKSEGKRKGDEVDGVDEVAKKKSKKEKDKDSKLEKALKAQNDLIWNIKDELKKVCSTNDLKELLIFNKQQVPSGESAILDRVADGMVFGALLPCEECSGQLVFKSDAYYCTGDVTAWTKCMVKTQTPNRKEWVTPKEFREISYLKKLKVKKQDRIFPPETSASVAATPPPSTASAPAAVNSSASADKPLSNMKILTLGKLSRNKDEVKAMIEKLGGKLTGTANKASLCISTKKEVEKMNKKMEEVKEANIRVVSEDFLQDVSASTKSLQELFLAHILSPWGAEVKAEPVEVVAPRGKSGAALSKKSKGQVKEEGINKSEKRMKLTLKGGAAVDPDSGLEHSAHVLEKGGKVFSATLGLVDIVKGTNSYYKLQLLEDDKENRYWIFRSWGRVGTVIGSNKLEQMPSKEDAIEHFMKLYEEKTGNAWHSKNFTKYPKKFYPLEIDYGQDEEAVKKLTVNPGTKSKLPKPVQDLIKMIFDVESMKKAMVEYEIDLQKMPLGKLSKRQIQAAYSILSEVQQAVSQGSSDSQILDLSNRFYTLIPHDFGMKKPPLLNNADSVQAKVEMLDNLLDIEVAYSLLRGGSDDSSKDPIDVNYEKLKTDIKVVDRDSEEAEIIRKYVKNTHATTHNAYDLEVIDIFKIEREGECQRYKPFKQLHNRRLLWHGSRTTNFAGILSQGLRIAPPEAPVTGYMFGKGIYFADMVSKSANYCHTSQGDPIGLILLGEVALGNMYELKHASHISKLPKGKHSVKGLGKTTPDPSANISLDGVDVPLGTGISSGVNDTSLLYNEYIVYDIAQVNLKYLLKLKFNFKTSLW
observed-property: pIC50
Reminder that pIC50 means the negative base-10 logarithm of the concentration expressed in mol/L.

Give the value of pIC50 reported for the following: O=c1[nH]nc2c3c(cccc13)N[C@H](c1ccc(CN3CCC3)cc1)[C@H]2c1ccc(F)cc1 8.96

Give the value of pIC50 reported for the following: O=c1[nH]nc2c3c(cccc13)NC(c1ccc(CN3CCC3)cc1)C2c1ccccc1 (stereo not given) 8.44

Give the value of pIC50 reported for the following: Cn1ccnc1C1Nc2cccc3c(=O)[nH]nc(c23)C1c1nccn1C (stereo not given) 7.61

Give the value of pIC50 reported for the following: CN(C)Cc1ccc(C2Nc3cccc4c(=O)[nH]nc(c34)C2c2ccc(F)cc2)cc1 (stereo not given) 8.61

Give the value of pIC50 reported for the following: Cn1ncnc1[C@H]1c2n[nH]c(=O)c3cccc(c23)N[C@@H]1c1ccc(F)cc1 8.84

Give the value of pIC50 reported for the following: CC(C)c1ccc(C2c3n[nH]c(=O)c4cccc(c34)NC2c2ccc(CN(C)C)cc2)cc1 (stereo not given) 8.02

Give the value of pIC50 reported for the following: Cn1ccnc1C1Nc2cccc3c(=O)[nH]nc(c23)C1c1ccccc1 (stereo not given) 8.02

Give the value of pIC50 reported for the following: O=c1[nH]nc2c3c(cccc13)N[C@@H](c1ccc(CN3CCC3)cc1)[C@@H]2c1ccc(F)cc1 8.25

Give the value of pIC50 reported for the following: CC(C)C1c2n[nH]c(=O)c3cccc(c23)NC1c1ccccc1 (stereo not given) 5.38

Give the value of pIC50 reported for the following: Cn1ccnc1C1c2n[nH]c(=O)c3cc(F)cc(c23)NC1c1ccccc1 (stereo not given) 8.67

---

Molecular target: PARP 1, 2 and 3 (Homo sapiens, UniProt P09874+Q9Y6F1+Q9UGN5)
Assay: Inhibition of PARP in human LoVo cells assessed as inhibition of poly(ADP)-ribose polymerization for 30 mins by fluorescence assay
Format: cell-based
Label satisfied when EC50 < 8 nM; otherwise not satisfied.

Please determine if Cn1ccnc1C1c2n[nH]c(=O)c3cc(Cl)cc(c23)NC1c1ccccc1 (stereo not given) is below 8 nM in terms of EC50. not satisfied

Please determine if Cn1ncnc1[C@H]1c2n[nH]c(=O)c3cccc(c23)N[C@@H]1c1ccc(F)cc1 is below 8 nM in terms of EC50. satisfied

Please determine if CN(C)Cc1ccc(C2Nc3cccc4c(=O)[nH]nc(c34)C2c2ccc(C(F)(F)F)cc2)cc1 (stereo not given) is below 8 nM in terms of EC50. satisfied

Please determine if CC(C)c1ccc(C2c3n[nH]c(=O)c4cccc(c34)NC2c2ccc(CN(C)C)cc2)cc1 (stereo not given) is below 8 nM in terms of EC50. not satisfied

Please determine if CN(C)Cc1ccc(C2Nc3cccc4c(=O)[nH]nc(c34)C2c2ccccc2)cc1 (stereo not given) is below 8 nM in terms of EC50. satisfied

Please determine if Cn1ncnc1C1c2n[nH]c(=O)c3cccc(c23)NC1c1ccc(F)cc1 (stereo not given) is below 8 nM in terms of EC50. satisfied

Please determine if Cn1ccnc1C1c2n[nH]c(=O)c3cccc(c23)NC1c1ccccc1 (stereo not given) is below 8 nM in terms of EC50. not satisfied

Please determine if CN(C)Cc1ccc(C2Nc3cc(F)cc4c(=O)[nH]nc(c34)C2c2ccccc2)cc1 (stereo not given) is below 8 nM in terms of EC50. not satisfied

Please determine if O=c1[nH]nc2c3c(cccc13)NC(c1ccccc1)C2c1ccccc1 (stereo not given) is below 8 nM in terms of EC50. not satisfied

Please determine if Cn1ccnc1C1c2n[nH]c(=O)c3cc(F)cc(c23)NC1c1ccccc1 (stereo not given) is below 8 nM in terms of EC50. not satisfied

Please determine if Cc1ccc(C2c3n[nH]c(=O)c4cccc(c34)NC2c2ccc(CN(C)C)cc2)cc1 (stereo not given) is below 8 nM in terms of EC50. not satisfied

Please determine if Cn1ccnc1[C@H]1c2n[nH]c(=O)c3cccc(c23)N[C@@H]1c1ccc(F)cc1 is below 8 nM in terms of EC50. satisfied

Please determine if CN(C)Cc1ccc(C2Nc3cc(F)cc4c(=O)[nH]nc(c34)C2c2ccc(F)cc2)cc1 (stereo not given) is below 8 nM in terms of EC50. satisfied

Please determine if O=c1[nH]nc2c3c(cccc13)N[C@H](c1ccc(CN3CCC3)cc1)[C@H]2c1ccc(F)cc1 is below 8 nM in terms of EC50. satisfied

Please determine if CN1CCN(Cc2ccc(C3Nc4cccc5c(=O)[nH]nc(c45)C3c3ccccc3)cc2)CC1 (stereo not given) is below 8 nM in terms of EC50. not satisfied

Please determine if Cn1ccnc1C1c2n[nH]c(=O)c3cccc(c23)NC1c1ccc(C(F)(F)F)cc1 (stereo not given) is below 8 nM in terms of EC50. not satisfied

Please determine if O=c1[nH]nc2c3c(cccc13)NC(c1ccc(CN3CCCC3)cc1)C2c1ccc(F)cc1 (stereo not given) is below 8 nM in terms of EC50. not satisfied

Please determine if O=c1[nH]nc2c3c(cccc13)NC(c1ccc(F)cc1)C2c1nccs1 (stereo not given) is below 8 nM in terms of EC50. not satisfied

Please determine if O=c1[nH]nc2c3c(cccc13)NC(c1ccc(CN3CCCC3)cc1)C2c1ccccc1 (stereo not given) is below 8 nM in terms of EC50. not satisfied

Please determine if O=c1[nH]nc2c3c(cccc13)NC(c1ccc(CN3CCC3)cc1)C2c1ccc(F)cc1 (stereo not given) is below 8 nM in terms of EC50. satisfied

// provenance: ChEMBL document CHEMBL3763037
